// values below are reported T/C
- System: CD2F1 mice, L1210 leukemia ip, survival T/C
- Assay Info: NCI In Vivo Anticancer Drug Screen. Data for tumor model L1210 Leukemia (intraperitoneal) in CD2F1 (CDF1) mice
- Condition: endpoint: mean survival time; dose: 200.0 mg/kg/injection; schedule: Q04DX002 (ip); vehicle: saline with Tween-80; higher = longer survival
Toxic doses and inconclusive results are not listed.
Endpoint: T/C

Compound | Endpoint | Endpoint Result
CCc1ccc(C(=O)CCC(=O)O)cc1 | T/C | 95 % of control
COc1cc([N+](=O)[O-])ccc1NC(=O)NCCc1ccccc1 | T/C | 95 % of control
CCCCCCNC(=O)Oc1c(C/C=C/CCC(=O)O)c(OC)c(C)c2c1C(=O)OC2 | T/C | 112 % of control
CC(C)OC(=O)Nc1ncn[nH]1 | T/C | 108 % of control
COc1cc(CCCCl)cc(OC)c1OC | T/C | 100 % of control
Cc1c(C)c(C)c(CN2CCC(C)CC2)c(C)c1C | T/C | 94 % of control
O=C1C=C(c2ccccc2)C(O)(c2ccccc2)/C1=C/c1ccccc1 (stereo not drawn) | T/C | 88 % of control
NC(=S)N/N=C/c1ccc(OC(=O)COc2ccc(Cl)cc2)cn1 | T/C | 114 % of control

====

- Test system: CD2F1 mice, L1210 leukemia ip, survival T/C
- Assay Info: NCI In Vivo Anticancer Drug Screen. Data for tumor model L1210 Leukemia (intraperitoneal) in CD2F1 (CDF1) mice
- Condition: endpoint: mean survival time; dose: 150.0 mg/kg/injection; schedule: Q04DX003 (ip); vehicle: saline; higher = longer survival
Inconclusive results and toxic doses are left out.
Endpoint: T/C

Compound | Endpoint Result
O=S1(=O)CCCCC1 | 96 % of control
CCO/N=C(\C)CSC1=NCCN1 | 100 % of control
ClCCOCC1CO1 (stereo not given) | 101 % of control
O=C(NC(CCO)C(=O)O)OCc1ccccc1 (stereo not given) | 98 % of control
CC(=O)Nc1nnc(-c2ccc([N+](=O)[O-])o2)s1 | 100 % of control

====

- Test system: CD2F1 mice, L1210 leukemia ip, survival T/C
- Assay Info: NCI In Vivo Anticancer Drug Screen. Data for tumor model L1210 Leukemia (intraperitoneal) in CD2F1 (CDF1) mice
- Condition: endpoint: mean survival time; dose: 100.0 mg/kg/injection; schedule: Q04DX003 (ip); vehicle: other; higher = longer survival
Toxic doses and inconclusive results are not listed.

Sample Smiles | T/C
Cc1ccc(S(=O)(=O)N/N=C\c2cccnc2)cc1 | 101 % of control
c1ccc(C2SCCCS2)cc1 | 101 % of control
CN(N=O)P(=O)(Nc1ccccc1)Nc1ccccc1 | 103 % of control
CCCC(=O)c1c(C)cc(C)cc1C | 98 % of control

====

- System: CD2F1 mice, L1210 leukemia ip, survival T/C
- Assay Info: NCI In Vivo Anticancer Drug Screen. Data for tumor model L1210 Leukemia (intraperitoneal) in CD2F1 (CDF1) mice
- Condition: endpoint: mean survival time; dose: 20.0 mg/kg/injection; schedule: Q01DX009 (ip); vehicle: saline with Tween-80; higher = longer survival
Toxic doses and inconclusive results are not listed.
The following compounds are listed with their measured T/C values.

Sample Smiles | T/C
NC1=NN(c2ccccc2)CC1 | 106 % of control
C[n+]1cccc(NC(=O)c2ccc(NC(=O)C34CCC(C(=O)Nc5ccc(C(=O)Nc6ccc[n+](C)c6)cc5)(CC3)CC4)cc2)c1 | 160 % of control
CN(C)CCNc1ccc(O)c2c1C(=O)c1ccccc1C2=O | 90 % of control
CCCCCCCCCC[n+]1cccc(C(N)=O)c1 | 100 % of control

====

- Tested on: CD2F1 mice, L1210 leukemia ip, survival T/C
- Assay Info: NCI In Vivo Anticancer Drug Screen. Data for tumor model L1210 Leukemia (intraperitoneal) in CD2F1 (CDF1) mice
- Condition: endpoint: mean survival time; dose: 100.0 mg/kg/injection; schedule: Q01DX009 (ip); vehicle: saline with Tween-80
Toxic doses and inconclusive results are not listed. How the source made its calls: active means survival T/C of 150% or more; inactive means T/C below 125% in these data.
Possible outcomes: active, inactive

Molecule | Group
C/C=C\C=C\C(=O)O | inactive
CC(=O)Nc1ccc(C)c(Cl)c1 | inactive
CC(C)(C)NC(=O)Cc1ccccc1 | inactive
O=C(Nc1ccc(Cl)c(Cl)c1)Nc1c(Oc2ccc(Cl)c(Cl)c2)ccc(Cl)c1S(=O)(=O)O | inactive
NC(=O)NC1CCCCCC1 | inactive
CCCCCCCC(=O)Nc1ccc(-n2c(=O)cc(C)n2C)cc1 | inactive
CC(=O)OC1CCC2(C)C(CCC3C2CCC2(C)C3CC3OC(CCC(C)CO)C(C)C32)C1 (configuration not stated) | inactive
OCC1OC(c2ccccc2)OC(CO)C(O)C1O (configuration not stated) | inactive
CN(C)CCCC#N | inactive
Br/C(C=Nc1ccccc1)=C\Nc1ccccc1 | inactive
COc1ccc(N=C(c2ccccc2)c2ccccc2)cc1 | inactive
CC(=O)OCC(=O)C1(O)CCC2C3CCC4=CC(=O)CCC4(C)C34OC4CC21C (configuration not stated) | inactive
O=C(O)C(Br)C(Br)c1ccccc1 (configuration not stated) | inactive
COc1ccccc1C1=CCCCCC1 | inactive
c1cc(N2CCCC2)cc(N2CCCC2)c1 | inactive
O=C(O)C1C2CCC1C(O)C2 (configuration not stated) | inactive
OC12CC(C(F)(F)F)(C(F)(F)F)OC1(O)CC(C(F)(F)F)(C(F)(F)F)O2 (configuration not stated) | inactive
N=Cc1c(O)n(C2CCCCC2)c(=O)n(C2CCCCC2)c1=O | inactive
COc1ccc(CN(CCO)Cc2ccccc2)cc1OC | inactive
CC1(C)C=C(Cc2ccccc2)C(=O)c2ccccc21 | inactive
O=[N+]([O-])c1cccc(Cc2nncc3ccccc23)c1 | inactive
CC(=O)OCC(O)C(O)C(O)C(O)CO (configuration not stated) | inactive
CCOC(=O)c1ccc(OC(=O)Nc2ccc(Cl)cc2)cc1 | inactive
COc1ccc(C(C)C(OC(=O)c2ccc([N+](=O)[O-])cc2)c2ccccc2)cc1 (configuration not stated) | inactive
Cc1ccccc1NC(=O)CC#N | inactive
CC1(C)N=C(N)N=C(N)N1c1ccc(OCCNS(=O)(=O)c2cccc(S(=O)(=O)F)c2)c(Cl)c1 | active
O=C(C[n+]1ccccc1)N/N=C/c1c(O)ccc2ccccc12 | inactive
Cc1cc(O)c(C)c(C)c1Cl | inactive
CC(=O)N1C2=CCCC3CCCCC23c2ccccc21 (configuration not stated) | inactive
CCc1cccc(OS(=O)(=O)c2cccc([N+](=O)[O-])c2)c1 | inactive
O=C1c2ccccc2C(=O)c2c1ccc(O)c2O | inactive
COc1cc2ccc(CC(N)=O)cc2cc1OC | inactive
COc1ccc(OC)c(NC(=O)NNc2ccc([N+](=O)[O-])cc2[N+](=O)[O-])c1 | inactive
CC1Cc2ccccc2C1=O (configuration not stated) | inactive
CCOc1ccc(NC(=O)C2CCC(C)(C(=O)O)C2(C)C)cc1 (configuration not stated) | inactive
CCCC(C)(C)c1ccc(Cl)cc1 | inactive
CC(=O)NC(C(=O)O)C(C)c1c[nH]c2ccccc12 (configuration not stated) | inactive
CCOC(=O)Cc1cccc(CC(O)(c2ccccc2)c2ccccc2)n1 | inactive
S=C(NCCSC(=S)Nc1ccccc1)Nc1ccccc1 | inactive
Cc1ccc(Cl)c2ccccc12 | inactive
COC(=O)c1cc(Br)c(I)c([N+](=O)[O-])c1 | inactive
c1cc2nc(c1)CSCCCCCCCCSC2 | inactive
CC(C)(CO)C(O)C(=O)NC1CCCCC1 (configuration not stated) | inactive
CCCCCC(=O)C(C)C(C)C (configuration not stated) | inactive
O=C(O)c1ccc(C(=O)O)c2c(C(=O)O)ccc(C(=O)O)c12 | inactive
CC/C=C(\CC)CO | inactive
Cc1ccc(N2OCCN(C(=O)c3cc([N+](=O)[O-])cc([N+](=O)[O-])c3)C2c2ccccc2)cc1 (configuration not stated) | inactive
C/C=C(/CCCCC)C(=O)OCC | inactive
Cc1cccc(S(=O)(=O)N(C)C)c1 | inactive
CC(=O)C1=CCC2C3CC=C4CC(OC#N)CCC4(C)C3CCC12C (configuration not stated) | inactive
OCCNc1c(Cl)ccc(Cl)c1Cl | inactive
CC(=O)C(C(c1ccccc1)C1CCCc2ccccc21)N1CCOCC1 (configuration not stated) | inactive

====

- Test system: CD2F1 mice, L1210 leukemia ip, survival T/C
- Assay Info: NCI In Vivo Anticancer Drug Screen. Data for tumor model L1210 Leukemia (intraperitoneal) in CD2F1 (CDF1) mice
- Condition: endpoint: mean survival time; dose: 100.0 mg/kg/injection; schedule: Q01DX001 (ip); vehicle: saline; higher = longer survival
Toxic doses and inconclusive results are not listed.
Reported T/C by item:
Endpoint: T/C

Compound | Measured Target | Endpoint | Endpoint Result
CCN(CC)CCSCCSCCN(CC)CC | CD2F1 mice, L1210 leukemia ip, survival T/C | T/C | 100 % of control
Cc1cc(=O)[nH]c2ccccc12 | CD2F1 mice, L1210 leukemia ip, survival T/C | T/C | 98 % of control
CCOC(C=O)OCC | CD2F1 mice, L1210 leukemia ip, survival T/C | T/C | 103 % of control
CC(C)(C)OC(=O)C12CCCC(C(=O)OC(C)(C)C)(OO1)O2 | CD2F1 mice, L1210 leukemia ip, survival T/C | T/C | 95 % of control
O=S1CCS(=O)CC1 (centres undefined) | CD2F1 mice, L1210 leukemia ip, survival T/C | T/C | 96 % of control
OC(CBr)C(O)C(O)C(O)CBr (centres undefined) | CD2F1 mice, L1210 leukemia ip, survival T/C | T/C | 103 % of control
S=c1[nH]cc[nH]1 | CD2F1 mice, L1210 leukemia ip, survival T/C | T/C | 103 % of control
CC12CCCC(CCCO)(C1)NC(=O)C2 (centres undefined) | CD2F1 mice, L1210 leukemia ip, survival T/C | T/C | 101 % of control
CC1(C)NC(=O)NC1=O | CD2F1 mice, L1210 leukemia ip, survival T/C | T/C | 98 % of control
NC1CC(N)C(O)C(O)C1O (centres undefined) | CD2F1 mice, L1210 leukemia ip, survival T/C | T/C | 95 % of control
CC1(C)C(C2CCCC[N+]2=O)CS1(=O)=O (centres undefined) | CD2F1 mice, L1210 leukemia ip, survival T/C | T/C | 100 % of control
O=C(O)CCC(=O)c1cccc(O)c1 | CD2F1 mice, L1210 leukemia ip, survival T/C | T/C | 103 % of control
CCOC(=O)Nc1cc(Nc2ccccc2)c(N)c(N)n1 | CD2F1 mice, L1210 leukemia ip, survival T/C | T/C | 88 % of control
c1ccc(-c2nc(-c3ccccc3)n3nc4c(c3c2-c2ccccc2)CCCCCC4)cc1 | CD2F1 mice, L1210 leukemia ip, survival T/C | T/C | 112 % of control
